Cited source for all entries: the supplement of paper PMC9112550

System: Escherichia coli TOP10;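 also: peptides expressed intracellularly from a pBAD plasmid library in pooled LB shake-flask culture, induced with 0.3% L-arabinose, DNA abundance read by NGS, three biological replicates, DESeq2 with apeglm shrinkage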
Assay: shrunken log2 fold change of peptide-encoding DNA abundance (4.5 h post-induction vs induction); higher = less antimicrobial activity (less host growth inhibition)
Conditions: time post-induction: 4.5 h; library: site-saturation at positions 5, 18, 19, 20
Mark not satisfied for shrunken log2 fold change values under 0.1, and satisfied for everything at or above.

Hi, just wondering whether `RRIRHRPPRLPRPRPRPYQLPRP` shows shrunken log2 fold change of 0.1 or higher. not satisfied

Hi, just wondering whether `RRIRFRPPRLPRPRPRPPELPRP` shows shrunken log2 fold change of 0.1 or higher. satisfied

Hi, just wondering whether `RRIRFRPPRLPRPRPRPQEHPRP` shows shrunken log2 fold change of 0.1 or higher. not satisfied

Hi, just wondering whether `RRIRQRPPRLPRPRPRPANPPRP` shows shrunken log2 fold change of 0.1 or higher. not satisfied

Hi, just wondering whether `RRIRFRPPRLPRPRPRPMFVPRP` shows shrunken log2 fold change of 0.1 or higher. satisfied

Hi, just wondering whether `RRIRKRPPRLPRPRPRPHSEPRP` shows shrunken log2 fold change of 0.1 or higher. not satisfied

Hi, just wondering whether `RRIRWRPPRLPRPRPRPPAPPRP` shows shrunken log2 fold change of 0.1 or higher. satisfied

Hi, just wondering whether `RRIRNRPPRLPRPRPRPFAFPRP` shows shrunken log2 fold change of 0.1 or higher. not satisfied

Hi, just wondering whether `RRIRDRPPRLPRPRPRPDANPRP` shows shrunken log2 fold change of 0.1 or higher. satisfied

Hi, just wondering whether `RRIRDRPPRLPRPRPRPTFCPRP` shows shrunken log2 fold change of 0.1 or higher. satisfied

Hi, just wondering whether `RRIRLRPPRLPRPRPRPRDDPRP` shows shrunken log2 fold change of 0.1 or higher. satisfied

Hi, just wondering whether `RRIRFRPPRLPRPRPRPYTKPRP` shows shrunken log2 fold change of 0.1 or higher. not satisfied

Hi, just wondering whether `RRIRCRPPRLPRPRPRPVWVPRP` shows shrunken log2 fold change of 0.1 or higher. satisfied

Hi, just wondering whether `RRIRKRPPRLPRPRPRPWDLPRP` shows shrunken log2 fold change of 0.1 or higher. not satisfied
